System: MRSA
Assay: Antibacterial susceptibility testing, MRSA
Type: cell-based, methicillin resistant Staphylococcus aureus
Details: Table 1
OBSERVABLE: MRS IC50 (µg/mL)
Reply numerically in µg/mL, unit not repeated.

State the recorded MRS IC50 for this entry: [I-].[O-][S+](c1ccc(Br)cc1)c1cc2ccccc2[n+](CCCCCc2ccccc2)c1 (centres unmarked)
0.50

State the recorded MRS IC50 for this entry: [I-].[O-][S+](c1cccc(Br)c1)c1cc2ccccc2[n+](CCCCCc2ccccc2)c1 (centres unmarked)
0.90

State the recorded MRS IC50 for this entry: [I-].[O-][S+](c1cc2ccccc2[n+](CCCCCc2ccccc2)c1)c1ccccc1Br (centres unmarked)
0.35

State the recorded MRS IC50 for this entry: COc1cccc([S+]([O-])c2cc3ccccc3[n+](CCCCCc3ccccc3)c2)c1.[I-] (centres unmarked)
2.50
